Data provenance is patent US12083092B2.

- Test system: coxsackievirus B4 (Cox B4)
- protocolDetails: CPE inhibition assay, coxsackievirus B4
- Type: cell-based
- assaySetup: Enterovirus B
Record form. Attribute: log10 of EC50. Fill in for each entry.
Hi team, quick reminder: these entries are log10 of EC50 (µM).

CC(=O)N[C@]12C(=O)c3c(N)cccc3[C@@]1(O)Oc1ccc(C)cc12 (single isomer, unassigned) has a reported log10 of EC50 of -2.35

CC(=O)NC12C(=O)c3c(N)cccc3C1(O)Oc1cc(C3CC3)ccc12 (racemic) has a reported log10 of EC50 of -2.77

CC(=O)NC12C(=O)c3c(N)cccc3C1(O)Oc1cc(OC(F)(F)F)ccc12 (racemic) has a reported log10 of EC50 of -2.52

CC(=O)N[C@]12C(=O)c3c(N)cccc3[C@@]1(O)Oc1cc(C3CC3)ccc12 (single isomer, unassigned) has a reported log10 of EC50 of -3.03

CC(=O)N[C@@]12C(=O)c3c(N)cccc3[C@]1(O)Oc1cc(Cl)ccc12 (single isomer, unassigned) has a reported log10 of EC50 of -0.54

CC(=O)N[C@]12C(=O)c3c(N)cccc3[C@@]1(O)Oc1cc(Cl)ccc12 (single isomer, unassigned) has a reported log10 of EC50 of -2.74

CC(=O)N[C@@]12C(=O)c3c(N)cccc3[C@]1(O)Oc1cc(C3CC3)ccc12 (single isomer, unassigned) has a reported log10 of EC50 of -1.06

====

- Tested on: coxsackievirus B4 (Cox B4)
- protocolDetails: CPE inhibition assay, coxsackievirus B4
- Format: cell-based
- assaySetup: Enterovirus B
Output: class label from EC50. Mapping: bottom bin (below 0.002 µM), middle bin (0.002 µM to below 0.004 µM), top bin (0.004 µM or more)

Which class is correct for the following compound? CC(=O)N[C@@]12C(=O)c3c(N)cccc3[C@]1(O)Oc1cc(OC(F)(F)F)ccc12 (single isomer, unassigned) [Example 12]
top bin

Which class is correct for the following compound? CC(=O)N[C@@]12C(=O)c3c(N)cccc3[C@]1(O)Oc1cc(C(F)(F)F)ccc12 (single isomer, unassigned) [Example 5]
top bin

Which class is correct for the following compound? CC(=O)N[C@]12C(=O)c3c(N)cccc3[C@@]1(O)Oc1cc(C)ccc12 (single isomer, unassigned) [Example 17]
bottom bin

Which class is correct for the following compound? CC(=O)NC12C(=O)c3c(N)cccc3C1(O)Oc1ccc(C)cc12 (racemic) [Example 19]
top bin

Which class is correct for the following compound? CC(=O)N[C@@]12C(=O)c3c(N)cccc3[C@]1(O)Oc1cc(C)ccc12 (single isomer, unassigned) [Example 18]
top bin

Which class is correct for the following compound? CC(=O)N[C@]12C(=O)c3c(N)cccc3[C@@]1(O)Oc1cc(OC(F)(F)F)ccc12 (single isomer, unassigned) [Example 11]
bottom bin

Which class is correct for the following compound? CC(=O)N(C)C12C(=O)c3c(N)cccc3C1(O)Oc1cc(C(F)(F)F)ccc12 (centres unmarked) [Example 21]
middle bin

Which class is correct for the following compound? CC(=O)N[C@]12C(=O)c3c(N)cccc3[C@@]1(O)Oc1cc(Br)ccc12 [Example 6]
bottom bin

Which class is correct for the following compound? CC(=O)NC12C(=O)c3c(N)cccc3C1(O)Oc1cc(C)ccc12 (racemic) [Example 16]
middle bin

Which class is correct for the following compound? CC(=O)NC12C(=O)c3c(N)cccc3C1(O)Oc1cc(Cl)ccc12 (racemic) [Example 13]
middle bin

Which class is correct for the following compound? CC(=O)N[C@]12C(=O)c3c(N)cccc3[C@@]1(O)Oc1cc(C(F)(F)F)ccc12 (single isomer, unassigned) [Example 4]
bottom bin

Which class is correct for the following compound? COc1ccc2c(c1)O[C@]1(O)c3cccc(N)c3C(=O)[C@]21NC(C)=O (single isomer, unassigned) [Example 23]
middle bin

Which class is correct for the following compound? CC(=O)N[C@]12C(=O)c3c(N)cccc3[C@@]1(O)Oc1cc(C(C)C)ccc12 (single isomer, unassigned) [Example 1]
bottom bin
